Where these numbers come from: ChEMBL document CHEMBL3507680

Assay: Human HepG2 cell viability assay in 384 well format
Type: toxicity, cell-based
Parameters: dose 125 nL, time 70.5 hour; concentration not given beside the values
Settings: HepG2 cells, read-out: Inhibition
Exercise: state measured cytotoxicity at 70.5 h for each of the compounds provided.
Numbers only, in %.

Sample records with cytotoxicity at 70.5 h:
{"COMPOUND": "Cc1cc(C)c2cc(CNC3CCCCC3)c3nn(C)c(=O)n3c2c1", "cytotoxicity at 70.5 h [%]": 5.59}
{"COMPOUND": "CSCc1noc(-c2ccc(C)c(N3CCNC3=O)c2)n1", "cytotoxicity at 70.5 h [%]": -9.43}
{"COMPOUND": "Cc1cc(CN2CCN(S(C)(=O)=O)CC(C(=O)N(C)C)C2)no1 (configuration not stated)", "cytotoxicity at 70.5 h [%]": 0.351}
{"COMPOUND": "CC(C)n1nc(CN2CCCC2=O)c2c1CN(C(=O)c1ccno1)C2", "cytotoxicity at 70.5 h [%]": -1.71}
{"COMPOUND": "CC(C(=O)Nc1ccc(C#N)cc1)N1CCc2ccccc21 (configuration not stated)", "cytotoxicity at 70.5 h [%]": 43.4}

// for each compound in input: emit cytotoxicity at 70.5 h
1. CC(C)n1cnnc1C1CCCN(C(=O)COCc2ccccc2)C1 (configuration not stated)
2. O=C(CNC(=O)c1ccccc1F)NCc1ccccn1
3. O=C1CC(c2ccc(O)cc2)c2c(c(C(=O)O)cn2-c2ccccc2)N1 (configuration not stated)
4. CCN1CCN(c2ccccc2NC(=O)NCc2ccon2)CC1

Found:
[-5.17, -7.71, -10.6, -0.39]

Could I get cytotoxicity at 70.5 h for every one of these entries?
1. O=C1OCCN1Cc1cccc(C(F)(F)F)c1F
2. COCCN(Cc1ccccc1Cl)c1nc(CCN)nc2ccccc12
3. N#Cc1cn(C2CC2)c(=O)n(Cc2noc(-c3ccsc3)n2)c1=O

Found:
1. -10.3
2. -6.84
3. -14

* * *

Consider the following compounds; for each one, report its cytotoxicity at 70.5 h.
Experiment: Human HepG2 cell viability assay in 384 well format
Assay type: toxicity, cell-based
Set-up: dose 125 nL, time 70.5 hour; concentration not given beside the values
Conditions: HepG2 cells, read-out: Inhibition
Answers are plain numbers, in %.

{"COMPOUND": "CCCNc1ncc(C2CC(=O)NCc3nc4ccccn4c32)cn1 (stereo not given)", "cytotoxicity at 70.5 h (%)": -8.46}

// input: 4 compounds below; output: cytotoxicity at 70.5 h for each
1. Cc1cccc(CN2C[C@@H]3CN(C(=O)NC(C)C)C[C@@H]3C2=O)c1
2. Cn1cc(CN2C[C@@H]3COC[C@]3(COc3ccc(C#N)cn3)C2)cn1
3. O=C(c1ccoc1)N1CCCC2(CCC(=O)N2Cc2ccncc2)C1 (stereo not given)
4. O=C(CC1CCC2(CC1)CCN(Cc1ccncc1)CC2)N1CCCC1

Found:
1: -11.4; 2: -10.6; 3: -1.87; 4: 6.54

* * *

Provide the recorded cytotoxicity at 70.5 h for the entries that follow.
Assay: Human HepG2 cell viability assay in 384 well format
Assay type: toxicity, cell-based
Design: dose 125 nL, time 70.5 hour; concentration not given beside the values
Conditions: HepG2 cells, read-out: Inhibition
One number for each entry, in %.

Solved entries:
{"COMPOUND": "CCOCC1CCN(C(=O)C(c2cccc(F)c2)N(C)C)CC1 (configuration not stated)", "cytotoxicity at 70.5 h [%]": 27.9}
{"COMPOUND": "CCN(CC)Cc1nc2c(o1)CN(C(=O)c1ccc3ncccc3c1)C2", "cytotoxicity at 70.5 h [%]": -4.56}
{"COMPOUND": "COCCn1cc(C(=O)N2CCCC2c2cc(C)on2)c2ccccc21 (configuration not stated)", "cytotoxicity at 70.5 h [%]": 1.11}

Provide cytotoxicity at 70.5 h values for the following items, in order.
1. COc1ccc(OCCCN2CCOC(Cn3cccn3)C2)cc1 (configuration not stated)
2. c1ccc(-n2ccc(CN3CCCC(Cn4cncn4)C3)n2)cc1 (configuration not stated)
3. CCc1ccc(C(COC)NC(=O)c2ccc(F)c(NC(C)=O)c2)o1 (configuration not stated)
4. O=c1c(S(=O)(=O)N2CCCC2)cccn1Cc1c(F)cccc1Cl

Found:
15.4
0.226
23.6
-6.76

For every record below, what is its cytotoxicity at 70.5 h?
1. Cc1ccc(-c2cc(C(=O)NCCN3CCOCC3)n[nH]2)s1
2. O=C(NCCCc1ccco1)c1ccc(N2CCOCC2)cc1
3. CC(CO)N(C)C(=O)c1cn(-c2ccc(Br)cc2)cn1 (configuration not stated)

Found:
1. -3.46
2. 4.57
3. -7.34

Quick request: cytotoxicity at 70.5 h for each listed item, please.
1. Cc1noc(C)c1S(=O)(=O)N(CC(N)=O)CC(C)C
2. O=C(Nc1ccccc1C(=O)N1CCCC1)NC1CCOCC1

Found:
-20.2
-7.16

* * *

Please respond with reported cytotoxicity at 70.5 h for every item in the list.
Experiment: Human HepG2 cell viability assay in 384 well format
Assay type: toxicity, cell-based
Design: dose 125 nL, time 70.5 hour; concentration not given beside the values
Conditions: HepG2 cells, read-out: Inhibition
One number for each entry, in %.

// solved cases for cytotoxicity at 70.5 h follow
{"COMPOUND": "Cc1nccn1C1CCCN(C(=O)c2ccnc(-n3ccnc3)c2)C1 (configuration not stated)", "DISPLAY UNIT": "%", "cytotoxicity at 70.5 h": 10.7}
{"COMPOUND": "CCN(Cc1ccoc1)C(C(N)=O)c1cccc(Br)c1 (configuration not stated)", "DISPLAY UNIT": "%", "cytotoxicity at 70.5 h": -7.25}
{"COMPOUND": "CC(C)c1nc(C2CCCN2Cc2ccon2)no1 (configuration not stated)", "DISPLAY UNIT": "%", "cytotoxicity at 70.5 h": -10.9}
{"COMPOUND": "CNc1cncc(C2CCCN2C(=O)CCn2ccnc2C(C)C)n1 (configuration not stated)", "DISPLAY UNIT": "%", "cytotoxicity at 70.5 h": -3}
{"COMPOUND": "CCOCc1ccc(NC(=O)NC2CCCn3nc(CC)nc32)cc1 (configuration not stated)", "DISPLAY UNIT": "%", "cytotoxicity at 70.5 h": -7.72}
{"COMPOUND": "O=C([C@@H]1CCO[C@@H]2CCN(CC3CCOCC3)C[C@H]21)N1CCCO1", "DISPLAY UNIT": "%", "cytotoxicity at 70.5 h": 46.7}

Look up cytotoxicity at 70.5 h for the entries below, preserving their order.
1. CCC(C)N(Cc1ccncc1)Cc1ccc(-n2cccn2)cc1 (configuration not stated)
2. CC(=O)c1cccc(NC(=O)N(CCO)C2CCc3ccccc32)c1 (configuration not stated)
3. COc1ccc(F)cc1-c1ccccc1CC1(C(=O)O)CCOCC1
4. COCCN1CCC(CNc2nccc(-c3cnn(C)c3)n2)CC1
5. CNc1cc(N2CCCC2CNCc2ccc(Cl)o2)ncn1 (configuration not stated)
6. Cc1cc(OCCC(=O)NCc2ccc(F)cc2)nnc1C

Found:
1. -5.94
2. 26.8
3. 27.6
4. -3.27
5. 8.16
6. 0.423

* * *

Test: Human HepG2 cell viability assay in 384 well format
Format: toxicity, cell-based
Parameters: dose 125 nL, time 70.5 hour; concentration not given beside the values
Conditions: HepG2 cells, read-out: Inhibition
READOUT: cytotoxicity at 70.5 h (%)
Give bare numbers, in %.

Worked cases, answers included:
{"COMPOUND": "c1nc2c(c(NC3CCC3)n1)CCNCC2", "cytotoxicity at 70.5 h (%)": -2.44}
{"COMPOUND": "Cc1oncc1C(=O)NCc1cc(=O)n2c(n1)CN(CC1CC1)CCC2", "cytotoxicity at 70.5 h (%)": 17.8}
{"COMPOUND": "O=C1NCC2(CCCN(C(=O)c3ccc4c(c3)OCCO4)CC2)O1 (configuration not stated)", "cytotoxicity at 70.5 h (%)": -2.63}
{"COMPOUND": "CCc1cccc(C)c1NC(=O)NCCCN(CC)S(C)(=O)=O", "cytotoxicity at 70.5 h (%)": -3.01}
{"COMPOUND": "CCN(CC)CC(=O)NCc1cccnc1-n1cnc2ccccc21", "cytotoxicity at 70.5 h (%)": -3.36}
{"COMPOUND": "O=C1CO[C@@H]2CN(Cc3cccs3)C[C@H]2N1Cc1ccncc1", "cytotoxicity at 70.5 h (%)": 7.47}

Need cytotoxicity at 70.5 h for each of these compounds.
1. CCOc1cccc2c1OCC(C(=O)NS(=O)(=O)c1ccc(Cl)cc1)=C2
2. O=C(CN1CCOCC1)N1CCC(c2cc(N3CCCC3)ncn2)CC1
3. CC(C)C(NC(N)=O)C(=O)NCc1ccc(N2CCCC2)nc1 (configuration not stated)

Found:
[21.1, -3.77, -9.75]

Please state cytotoxicity at 70.5 h for every compound in the list that follows.
1. CN(Cc1cccnc1)C[C@@H]1OC[C@H]2CN(Cc3ccoc3)CC[C@H]21
2. Cc1nc(CC(=O)N2CCCC2Cn2cccn2)cs1 (configuration not stated)
3. CCC(C#N)NC(=O)CCCOc1cccc(C(C)=O)c1 (configuration not stated)
4. CS(=O)(=O)Cc1nc(CN2CCc3ccccc3CC2)cs1
5. Cc1c[nH]c(C(=O)N2CCCC2c2ccc(C(=O)N3CCSCC3)s2)n1 (configuration not stated)

Found:
-0.956
-5
-11.3
5.16
-11.4
